B1: LINE1-mini (parent)
chain: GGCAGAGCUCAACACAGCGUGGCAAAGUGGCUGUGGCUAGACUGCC

Variants of: B1
EXPERIMENT_SUMMARY: self-cleavage, relative activity (ratio to wild type); higher = more cleavage; in vitro, sequencing; the parent is a self-cleaving ribozyme
Rule: true (1) for self-cleavage not less than 0.1, false (0) for anything less.

Check if self-cleavage >= 0.1 (inclusive). Item: C31A C42A false (0)

Further cases:
Check if self-cleavage >= 0.1 (inclusive). Item: C15A A41U false (0)

Check if self-cleavage >= 0.1 (inclusive). Item: G7A A24C true (1)

Check if self-cleavage >= 0.1 (inclusive). Item: G1C U43A false (0)

Check if self-cleavage >= 0.1 (inclusive). Item: G1C C31G false (0)

Check if self-cleavage >= 0.1 (inclusive). Item: A24C U34A false (0)

Check if self-cleavage >= 0.1 (inclusive). Item: U32C C37G false (0)

Check if self-cleavage >= 0.1 (inclusive). Item: G35U C37U false (0)

Check if self-cleavage >= 0.1 (inclusive). Item: U9C G40A false (0)

Check if self-cleavage >= 0.1 (inclusive). Item: U20C C45A true (1)

Check if self-cleavage >= 0.1 (inclusive). Item: G7C U28G false (0)

Check if self-cleavage >= 0.1 (inclusive). Item: A6G A24C true (1)
